# subjectOfTest: human PAR4 (Homo sapiens, UniProt Q96RI0)
# assayDetails: PAR4 FLIPR assay: antagonism of agonist-peptide-induced calcium mobilization in PAR4-expressing HEK293 cells
# measurementContext: H-Ala-Phe(4-F)-[…]NH2-induced intracellular calcium mobilization, 11-point curves
measurementType: pIC50
Notebook: values listed as pIC50 are -log10 of the concentration (mol/L).

Below, each entry is followed by its recorded pIC50 result.
[[record]]
molecule = "COCc1cnc2c(-c3nc4c(C)c(C)c(OC)cc4s3)cc(C)cc2n1"
measurementtype = "pIC50"
endpointresult = 8.23

[[record]]
molecule = "COCc1cnc2c(-c3nc4c(C)cc(OCCNS(=O)(=O)c5cccc(F)c5)cc4s3)cc(C)cc2n1"
measurementtype = "pIC50"
endpointresult = 8.77

[[record]]
molecule = "COc1cnc2c(-c3nc4cc(F)c(O[C@@H](C)[C@@H](C)OC(=O)Nc5cnc(C(=O)NCCO)nc5)cc4s3)cc(C)cc2n1"
measurementtype = "pIC50"
endpointresult = 9.10

[[record]]
molecule = "COc1cnc2c(-c3nc4cc(F)c(O[C@@H](C)[C@@H](C)OC(=O)Nc5cncnc5)cc4s3)cc(C)cc2n1"
measurementtype = "pIC50"
endpointresult = 9.52

[[record]]
molecule = "COc1cnc2c(-c3nc4c(C(O)C5(C(F)(F)F)CCC5)cc(OC)cc4s3)cc(Cl)cc2c1 (stereo not drawn)"
measurementtype = "pIC50"
endpointresult = 8.62

[[record]]
molecule = "COc1cnc2c(-c3nc4cc(F)c(OC[C@@H](C)OC(=O)Nc5ccc(OCC(F)(F)CO)nc5)cc4s3)cc(C)cc2n1"
measurementtype = "pIC50"
endpointresult = 8.70

[[record]]
molecule = "COc1cnc2c(-c3nc4c(Cl)cc(OCCNS(=O)(=O)c5ccccc5)cc4s3)cc(C)cc2n1"
measurementtype = "pIC50"
endpointresult = 8.27

[[record]]
molecule = "COCc1cnc2c(-c3nc4c(CO)cc(OC)cc4s3)cc(C)cc2n1"
measurementtype = "pIC50"
endpointresult = 9.10

[[record]]
molecule = "Cc1cc(-c2nc3ccc(OCCNC(=O)OC4CCOCC4)cc3s2)c2ncc(OC(F)F)nc2c1"
measurementtype = "pIC50"
endpointresult = 7.52

[[record]]
molecule = "COc1cnc2c(-c3nc4cc(F)c(O[C@@H](C)[C@@H](C)OC(=O)Nc5ccnc(OC[C@@H](C)O)c5)cc4s3)cc(C)cc2n1"
measurementtype = "pIC50"
endpointresult = 9.40


Inquiry: Need pIC50, item "COc1cnc2c(-c3nc4cc(F)c(OC[C@@H](C)OC(=O)Nc5ccc(C(=O)NCC(C)(C)CO)nc5)cc4s3)cc(C)cc2n1"
Reply text: 8.34

Inquiry: Would you mind telling me what pIC50 value was observed for "COc1cnc2c(-c3nc4cc(F)c(OC[C@@H](C)OC(=O)Nc5ccnc(CO)c5)cc4s3)cc(C)cc2n1" ?
Reply text: 7.82

* * *

# subjectOfTest: human PAR4 (Homo sapiens)
# Sequence (Q96RI0 18-385): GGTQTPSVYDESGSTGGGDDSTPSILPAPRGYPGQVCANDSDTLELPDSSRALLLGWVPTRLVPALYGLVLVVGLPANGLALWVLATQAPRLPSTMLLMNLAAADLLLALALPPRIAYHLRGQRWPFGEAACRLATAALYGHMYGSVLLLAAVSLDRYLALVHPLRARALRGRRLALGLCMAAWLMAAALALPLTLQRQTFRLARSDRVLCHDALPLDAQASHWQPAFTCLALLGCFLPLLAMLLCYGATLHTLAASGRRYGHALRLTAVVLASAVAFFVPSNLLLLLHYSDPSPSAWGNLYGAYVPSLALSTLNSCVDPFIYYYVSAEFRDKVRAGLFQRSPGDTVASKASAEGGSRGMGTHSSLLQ
# assayDetails: PAR4 FLIPR assay: antagonism of agonist-peptide-induced calcium mobilization in PAR4-expressing HEK293 cells
# measurementContext: H-Ala-Phe(4-F)-[…]NH2-induced intracellular calcium mobilization, 11-point curves
measurementType: pIC50
// pIC50 is dimensionless: -log10 of concentration (M)

Example entries and their recorded answers appear below.
[[record]]
molecule = "COc1cnc2c(-c3nc4cc(F)c(O[C@@H](C)[C@@H](C)OC(=O)Nc5cnc(C)nc5)nc4s3)cc(Cl)cc2c1"
endpointresult = 8.49

[[record]]
molecule = "COCc1cnc2c(-c3nc4c(C(O)C(C)(C)C)cc(OC)cc4s3)cc(C)cc2n1 (stereo not shown) [Example 628]"
endpointresult = 8.85

[[record]]
molecule = "COCc1cnc2c(-c3nc4c(Cl)cc(OC)cc4s3)cc(Cl)cc2n1"
endpointresult = 9.52

[[record]]
molecule = "COc1cnc2c(-c3nc4c(Cl)c(F)c(O[C@@H](C)[C@@H](C)OC(=O)Nc5ccncc5)cc4s3)cc(Cl)cc2c1"
endpointresult = 8.60

[[record]]
molecule = "COc1cnc2c(-c3nc4cc(F)c(O[C@@H](C)[C@@H](C)OC(=O)Nc5cnc(OC[C@@H](C)O)nc5)nc4s3)cc(C)cc2n1"
endpointresult = 8.55

[[record]]
molecule = "Cc1cc(-c2nc3cc(F)c(O[C@@H](C)[C@@H](C)OC(=O)Nc4cnc(C)nc4)cc3s2)c2ncc(N(C)C)nc2c1"
endpointresult = 7.70


Next, consider the following molecule.
Inquiry: Record lookup: for human PAR4 (Homo sapiens), what pIC50 belongs to "COc1cnc2c(-c3nc4cc(F)c(OC[C@@H](C)OC(=O)Nc5ccnnc5)nc4s3)cc(C)cc2n1" ?
Reply text: 7.77

The measured values listed here are drawn from patent US12060347B2.
